These entries and their values trace back to ChEMBL document CHEMBL1125209.

Biological target: Cholecystokinin receptor type A (Cavia porcellus)
Sequence (Q63931 whole entry): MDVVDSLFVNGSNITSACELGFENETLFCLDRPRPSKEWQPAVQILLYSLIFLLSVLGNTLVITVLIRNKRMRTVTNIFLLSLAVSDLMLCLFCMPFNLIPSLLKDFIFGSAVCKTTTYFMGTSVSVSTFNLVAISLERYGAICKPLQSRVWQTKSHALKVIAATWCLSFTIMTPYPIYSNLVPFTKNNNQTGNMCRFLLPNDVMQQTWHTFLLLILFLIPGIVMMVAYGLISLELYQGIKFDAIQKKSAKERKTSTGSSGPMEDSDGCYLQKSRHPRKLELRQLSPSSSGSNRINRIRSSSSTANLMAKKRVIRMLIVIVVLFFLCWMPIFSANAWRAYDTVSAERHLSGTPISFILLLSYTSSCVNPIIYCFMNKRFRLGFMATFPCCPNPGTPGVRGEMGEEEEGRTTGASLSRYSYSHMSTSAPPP
Experiment: Binding affinity towards cholecystokinin type A receptor in guinea pig pancreas by using [125I]BH-CCK-8 as radioligand
Assay type: tissue-based
*1 amine or outer side, *2 acyl side, *3 side chain or, on linkers, in order; H or OH if unused. Where a SMILES comes first, the peptide text is derived from it. Side-chain parts run from the residue outwards. The star is where a group is joined. 3Abz = Nc1cccc(C(=O)O)c1; X4 = CC(=O)c1cccc(N*)c1; Boc = CC(C)(C)OC(=O)*; CO = O=C([*:1])[*:2]
Recorded IC50 by entry
The reply must contain the numeric value and, after it, the unit.

CC(=O)c1cccc(NC(=O)NCCCC[C@H](NC(=O)[C@H](Cc2c[nH]c3ccccc23)NC(=O)OC(C)(C)C)C(=O)N[C@@H](CC(=O)O)C(=O)N[C@@H](Cc2ccccc2)C(N)=O)c1 (Boc-WK([CO-X4])DF-NH2)	19 nM

Now let's try a different one.
(Q) Give the measured IC50 for COC(=O)c1cccc(NC(=O)NCCCC[C@H](NC(=O)[C@H](Cc2c[nH]c3ccccc23)NC(=O)OC(C)(C)C)C(=O)N[C@@H](CC(=O)O)C(=O)N[C@@H](Cc2ccccc2)C(N)=O)c1 (Boc-WK([CO-3Abz-OMe])DF-NH2)
(A) 26 nM

---

Molecular target: Cholecystokinin receptor type A (Cavia porcellus)
Experiment: Binding affinity for Cholecystokinin type A receptor in guinea pig pancreas by using [125I]BH-CCK-8 as radioligand
*1 amine or outer side, *2 acyl side, *3 side chain or, on linkers, in order; H or OH if unused. Where a SMILES comes first, the peptide text is derived from it. Side-chain parts run from the residue outwards. The star is where a group is joined. NH(1-naphthyl) = c1ccc2c(N*)cccc2c1; NH(4-Cl-phenyl) = Clc1ccc(N*)cc1; X3 = O=[N+]([O-])c1ccccc1N*; Boc = CC(C)(C)OC(=O)*; CO = O=C([*:1])[*:2]
PROPERTY LABEL: IC50 (nM)
Please state the figure in nM; there is no need to write the unit.

Use the examples below as a reference point.
CC(C)(C)OC(=O)N[C@@H](Cc1c[nH]c2ccccc12)C(=O)N[C@@H](CCCCNC(=O)Nc1ccccc1[N+](=O)[O-])C(=O)N[C@@H](CC(=O)O)C(=O)N[C@@H](Cc1ccccc1)C(N)=O (Boc-WK([CO-X3])DF-NH2)	22
CC(C)(C)OC(=O)N[C@@H](Cc1c[nH]c2ccccc12)C(=O)N[C@@H](CCCCNC(=O)Nc1ccc(Cl)cc1)C(=O)N[C@@H](CC(=O)O)C(=O)N[C@@H](Cc1ccccc1)C(N)=O (Boc-WK([CO-NH(4-Cl-phenyl)])DF-NH2)	60

Now let's try a different one.
(Q) Give the measured IC50 for CC(C)(C)OC(=O)N[C@@H](Cc1c[nH]c2ccccc12)C(=O)N[C@@H](CCCCNC(=O)Nc1cccc2ccccc12)C(=O)N[C@@H](CC(=O)O)C(=O)N[C@@H](Cc1ccccc1)C(N)=O (Boc-WK([CO-NH(1-naphthyl)])DF-NH2)
(A) 16

---

Recorded EC50 by entry
Species: Cavia porcellus
Experiment: Effective concentration for hydrolysis of phosphoinositide in guinea pig pancreatic Acini
Assay type: functional
*1 amine or outer side, *2 acyl side, *3 side chain or, on linkers, in order; H or OH if unused. Where a SMILES comes first, the peptide text is derived from it. Side-chain parts run from the residue outwards. The star is where a group is joined. X3 = O=[N+]([O-])c1ccccc1N*; NH(2-ClPh) = Clc1ccccc1N*; Boc = CC(C)(C)OC(=O)*; CO = O=C([*:1])[*:2]; X5 = Cc1cccc(N*)c1; X6 = COc1ccccc1N*
Please state the figure in nM; there is no need to write the unit.

CC(C)(C)OC(=O)N[C@@H](Cc1c[nH]c2ccccc12)C(=O)N[C@@H](CCCCNC(=O)Nc1ccccc1[N+](=O)[O-])C(=O)N[C@@H](CC(=O)O)C(=O)N[C@@H](Cc1ccccc1)C(N)=O (Boc-WK([CO-X3])DF-NH2)	21
CC(C)(C)OC(=O)N[C@@H](Cc1c[nH]c2ccccc12)C(=O)N[C@@H](CCCCNC(=O)Nc1ccccc1Cl)C(=O)N[C@@H](CC(=O)O)C(=O)N[C@@H](Cc1ccccc1)C(N)=O (Boc-WK([CO-NH(2-ClPh)])DF-NH2)	4.6
COc1ccccc1NC(=O)NCCCC[C@H](NC(=O)[C@H](Cc1c[nH]c2ccccc12)NC(=O)OC(C)(C)C)C(=O)N[C@@H](CC(=O)O)C(=O)N[C@@H](Cc1ccccc1)C(N)=O (Boc-WK([CO-X6])DF-NH2)	8.4

(Q) Give the measured EC50 for Cc1cccc(NC(=O)NCCCC[C@H](NC(=O)[C@H](Cc2c[nH]c3ccccc23)NC(=O)OC(C)(C)C)C(=O)N[C@@H](CC(=O)O)C(=O)N[C@@H](Cc2ccccc2)C(N)=O)c1 (Boc-WK([CO-X5])DF-NH2)
(A) 51
